Numbers sourced from ChEMBL document CHEMBL3988442.

Kindly state Percent Effect for each of the entries shown.
molecular target: Arginase-2, mitochondrial (Homo sapiens); assay: in vitro enzyme assay to detect the production of urea directly proportional to the activity of Arginase II; type: functional; parameters: scale not given: in the data most compounds retested in dose-response had high values; details: 33.3 µM
Numbers only, in %.

COMPOUND	REPORTED_RESULT
CC(C)NC(=O)Nc1ccc(CNCc2cccc(OC(F)F)c2)cc1	-10
CN(C)C(CNC(=O)c1cc2c([nH]c1=O)CCCC2=O)c1ccsc1 (stereo unspecified)	-0.554
CC(NC(=O)c1cc(Br)c2c(c1)OCCO2)C(N)=O (stereo unspecified)	-3.55
CCS(=O)(=O)c1ccc(N2CCC(NC(=O)CCC(C)C)CC2)cc1	16.1

Lab note: each compound below needs its Percent Effect filled in.
1. CCOc1cc(/C=C/c2ncc(C(=O)O)s2)cc(Cl)c1OC
2. CC(C)c1ncc2c(n1)CN(Cc1cccc(OCC(N)=O)c1)CC2
3. O=S(=O)(CCNCc1ccc2c(c1)CCO2)N1CCOCC1
4. Cc1n[nH]c(C(=O)NCc2ccnc(OCC(F)(F)F)c2)c1Br
5. CCn1nc(-c2ccccc2F)ccc1=O
6. Nc1nc(C2CCN(C(=O)c3cncs3)CC2)cs1
7. CN1CC[C@H](c2ccccc2)[C@@H]2[C@H]1CCCCN2C(=O)c1cnccn1

**Result**
1. -4.52
2. 4.6
3. -3.33
4. -0.383
5. -12.7
6. 0.232
7. -5.34

----------
target: Sialic acid-binding Ig-like lectin 9 (Homo sapiens) (UniProt Q9Y336); test: Hs-Siglec9 ALPHAscreen SOP 20170721; design: scale not given: direction of the effect not stated beside the values; conditions: 10 µM
Sequence (Q9Y336 whole entry): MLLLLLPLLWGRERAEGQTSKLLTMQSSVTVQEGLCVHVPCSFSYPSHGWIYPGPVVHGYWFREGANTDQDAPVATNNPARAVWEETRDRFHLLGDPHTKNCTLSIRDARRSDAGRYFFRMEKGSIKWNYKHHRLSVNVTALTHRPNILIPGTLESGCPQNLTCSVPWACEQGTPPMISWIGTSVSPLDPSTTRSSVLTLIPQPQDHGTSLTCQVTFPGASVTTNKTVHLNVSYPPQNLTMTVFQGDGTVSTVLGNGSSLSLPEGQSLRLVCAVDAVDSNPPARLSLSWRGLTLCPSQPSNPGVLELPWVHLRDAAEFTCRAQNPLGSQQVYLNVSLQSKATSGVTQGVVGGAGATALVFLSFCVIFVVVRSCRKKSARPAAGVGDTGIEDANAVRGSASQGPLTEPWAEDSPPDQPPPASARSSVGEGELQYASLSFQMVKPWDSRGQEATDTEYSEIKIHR
MEASURED_ATTRIBUTE: Percent Effect (%)
Numbers only, in %.

# annotated cases, reported Percent Effect shown
MOLECULE	Percent Effect [%]
CCc1nc(CN2CCCC(NCc3cc(C)no3)C2)no1 (configuration not stated)	-1.38
CC(=O)N1CCCN(Cc2csc(-c3ncccn3)n2)CC1	-1
Cc1nn(C)c(N(C)C)c1CNCc1ccc(OCC(N)=O)cc1	0.758
Cc1nc(CN2CCCC(NCc3ccsc3)C2)no1 (configuration not stated)	-6.19
O=C(Cc1csc(-c2ccc(Cl)cc2)n1)NC(C(=O)O)c1ccccc1 (configuration not stated)	1.1

Lab note: each molecule below needs its Percent Effect filled in.
1. COc1cccc(-n2nnc(C(=O)N3CCCC3)c2C)c1
2. CCCOCC(=O)NS(=O)(=O)c1ccc2c(c1)OCCCO2
3. Cc1ccc(OC2(C(=O)O)CCN(C(=O)c3ccc(F)cc3)CC2)cn1
4. CCn1ccnc1CNCC1CCCN1c1cc(NC)ncn1 (configuration not stated)

**Result**
-7.88
-3.65
27.8
1.76

----------
Kindly state Percent Effect for each of the entries shown.
target: Sialic acid-binding Ig-like lectin 9 (Homo sapiens); assay: Hs-Siglec9 ALPHAscreen SOP 20170721; design: scale not given: direction of the effect not stated beside the values; details: 10 µM
Numbers only, in %.

# annotated cases, reported Percent Effect shown
MOLECULE	TARGET_DESC	Percent Effect, %
CC(C)(C(=O)NCC1CC1)c1ccccc1F	Sialic acid-binding Ig-like lectin 9 (Homo sapiens)	2.97
O=C(CCN1CCCN(c2nccs2)CC1)Nc1ccccc1	Sialic acid-binding Ig-like lectin 9 (Homo sapiens)	-7.96
Cc1cnc(C)c(N2CCN(Cc3ccc(-c4cc[nH]n4)o3)CC2)n1	Sialic acid-binding Ig-like lectin 9 (Homo sapiens)	21.3
CCNC(=O)c1ncn2c1CN(C)S(=O)(=O)c1ccccc1-2	Sialic acid-binding Ig-like lectin 9 (Homo sapiens)	7.01
CC(=O)N1CCc2c(nc(-c3ccccn3)nc2N(C)CC(O)CO)C1 (centres undefined)	Sialic acid-binding Ig-like lectin 9 (Homo sapiens)	3.94

Lab note: each molecule below needs its Percent Effect filled in.
1. CSc1ccccc1CN1CCCn2nc(CNC(=O)N(C)C)cc2C1
2. CN1CCc2c(C#N)c(NCc3ccco3)n3cnnc3c2C1
3. O=S1(=O)N=C(SCc2ccc(Cl)cc2)Nc2ccc(F)cc21
4. Cc1ccc(C(NC(=O)[C@H]2CC[C@@H](O)CC2)c2cccnc2)cc1C (some centres undefined)

**Result**
20.7
6.25
-2.88
2.58

Lab note: each molecule below needs its Percent Effect filled in.
1. O=C(NCC1CC1)C1CCC2(CCN(C(=O)c3ccccn3)CC2)O1 (centres undefined)
2. CC(C)n1ccnc1C1CCN(C(=O)c2cc[nH]n2)CC1
3. CCOC(C)c1nc(CN2CCN(c3nccc(C)n3)CC2)cs1 (centres undefined)
4. Cn1cnc2c1CCN(CCCc1ccccc1)C2
5. CCOc1ncccc1NC(=O)N1CCN(c2cccc(C)c2C)CC1
6. O=C(Nc1cccnc1)[C@H]1C[C@H]2OCC[C@H]2N(C(=O)c2ccsc2)C1

**Result**
1: -0.0517; 2: 10.9; 3: -1.42; 4: 4.07; 5: -3.7; 6: 13

Lab note: each molecule below needs its Percent Effect filled in.
1. CC(C)CN1CCN(C)C2(CCN(Cc3ccsc3)CC2)C1=O
2. Cc1noc(C2CCCCN2C(=O)NC2CCCC2)n1 (centres undefined)
3. CS(=O)(=O)N1CCOCC2(CN(Cc3ccco3)CCO2)C1 (centres undefined)

**Result**
1: -3; 2: -7.67; 3: 1.39

----------
target: Protein translocase subunit SecA (Escherichia coli (strain K12)) (UniProt P10408); assay: Assay to Identify E. coli SecA ATPase Inhibitors; assay type: functional; design: scale not given: direction of the effect not stated beside the values; settings: 30 µM
Sequence (P10408 whole entry): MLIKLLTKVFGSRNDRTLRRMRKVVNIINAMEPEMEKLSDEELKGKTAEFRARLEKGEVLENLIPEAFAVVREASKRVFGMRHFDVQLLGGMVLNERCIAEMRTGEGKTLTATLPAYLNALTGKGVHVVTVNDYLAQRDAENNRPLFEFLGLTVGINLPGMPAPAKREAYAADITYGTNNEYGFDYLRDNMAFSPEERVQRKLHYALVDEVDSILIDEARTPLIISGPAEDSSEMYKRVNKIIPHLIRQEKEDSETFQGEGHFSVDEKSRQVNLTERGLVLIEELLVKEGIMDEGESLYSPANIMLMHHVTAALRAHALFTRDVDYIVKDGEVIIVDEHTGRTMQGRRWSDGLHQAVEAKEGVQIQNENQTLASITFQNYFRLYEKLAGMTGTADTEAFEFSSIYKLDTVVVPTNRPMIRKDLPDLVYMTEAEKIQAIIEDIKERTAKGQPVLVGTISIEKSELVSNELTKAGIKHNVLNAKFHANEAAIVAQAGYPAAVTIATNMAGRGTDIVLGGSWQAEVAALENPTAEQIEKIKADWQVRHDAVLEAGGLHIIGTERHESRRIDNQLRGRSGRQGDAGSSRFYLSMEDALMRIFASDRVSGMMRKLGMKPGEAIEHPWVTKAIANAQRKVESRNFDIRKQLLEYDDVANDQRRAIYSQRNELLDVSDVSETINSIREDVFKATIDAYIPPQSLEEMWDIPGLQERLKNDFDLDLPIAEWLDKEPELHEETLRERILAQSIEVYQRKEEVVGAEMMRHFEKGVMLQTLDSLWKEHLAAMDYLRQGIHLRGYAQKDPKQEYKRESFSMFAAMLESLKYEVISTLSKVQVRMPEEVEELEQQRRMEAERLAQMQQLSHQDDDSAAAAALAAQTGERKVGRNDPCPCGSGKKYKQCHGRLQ
Results with a measured potency or affinity are listed apart.
MEASURED_ATTRIBUTE: Percent Effect (%)
Give bare numbers, in %.

MOLECULE	TARGET_DESC	MEASURED_ATTRIBUTE	REPORTED_RESULT
Cc1ccc(-c2nc(CCNC(=O)CCN3CCOC3=O)co2)cc1	Protein translocase subunit SecA (Escherichia coli (strain K12)) (UniProt P10408)	Percent Effect	-3.11

Lab note: each molecule below needs its Percent Effect filled in.
1. Cc1ccc(N(CC(=O)c2ccc(Br)cc2)C2=NCCCCC2)cc1
2. Cc1cc(NS(=O)(=O)c2ccccc2F)ccc1-n1cccc1C(=O)O
3. CCc1nc(C2CCCN2C(=O)c2ccc3c(c2)nnn3CC)no1 (stereo unspecified)
4. c1cc(CNCC2OCCc3cn(CC4CCOCC4)nc32)ccn1 (stereo unspecified)
5. COC(=O)c1ccc(S(=O)(=O)NCc2cccnc2N(C)C)cc1
6. CCCN(C(=O)c1ccccn1)c1nc2c(s1)CCc1c-2cnn1C
7. Cc1cnc(CN(C)C2CCN(Cc3nc4ccccc4n3C)C2)o1 (stereo unspecified)

**Result**
1. -1.45
2. -2.35
3. -3.49
4. -0.867
5. -2.49
6. 3.44
7. -2.3

----------
target: Proteasome subunit beta (Trypanosoma cruzi) (UniProt O96673); test: Trypanosoma cruzi proteasome chymotrypsin-like activity (TcProtChymo) assay.; format: functional; parameters: scale not given: in the data most compounds retested in dose-response had high values; details: 9.37 µM
Sequence (O96673 as listed by the source): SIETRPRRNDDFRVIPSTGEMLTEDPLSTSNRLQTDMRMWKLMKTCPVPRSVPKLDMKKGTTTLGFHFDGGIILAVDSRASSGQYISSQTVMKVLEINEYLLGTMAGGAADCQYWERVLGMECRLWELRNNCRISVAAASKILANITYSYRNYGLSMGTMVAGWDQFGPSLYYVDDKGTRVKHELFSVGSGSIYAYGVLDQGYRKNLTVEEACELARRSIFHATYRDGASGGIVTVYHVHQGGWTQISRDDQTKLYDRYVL
Response key: 1 means Percent Effect >= 10%; 0 means Percent Effect < 10%.

COMPOUND	CATEGORY
CCOCCCn1c(NC(=O)c2ccc(C)nc2)nc2ccccc21	0
CCC(O)CN1CCN(C(=O)c2cccn2Cc2ccccc2)CC1 (configuration not stated)	0
Cc1cnn(CC2CCCCN2CC(=O)Nc2c(C)n[nH]c2C)c1 (configuration not stated)	0
CN(Cc1ccc(F)cc1)[C@@H]1CN(C(=O)c2cccs2)C[C@H]1O	1
O=C(NCCNc1cnccn1)N1CCCC1	0
CCc1n[nH]c(C2CN(C(=O)CCc3cccs3)CCO2)n1 (configuration not stated)	0
Cc1ccc(C)c(C(C(=O)O)N2CCCN(Cc3ccccn3)CC2)c1 (configuration not stated)	1
CC(C)CN1CCC2(C=C(C(=O)N3CCCC3)c3ccccc32)CC1	0
COc1cccc(CCC(=O)N2CCCC(n3cc(C)cn3)C2)c1 (configuration not stated)	0
CCc1nc(CN(C)C2CCN(CCc3ccccn3)C2)no1 (configuration not stated)	1

**Query** Record O=C(Cc1ccc2c(c1)OCCO2)NC1CCN(CC(F)F)CC1 ; criterion: Percent Effect no lower than 10%. Met?
**Result** 0

**Query** Record Cc1ccc2c(ccn2CCC(=O)N2CCC(C(N)=O)CC2)c1 ; criterion: Percent Effect no lower than 10%. Met?
**Result** 1

**Query** Record CC(C)CN1CCCn2nc(CNC(=O)CCN)cc2C1 ; criterion: Percent Effect no lower than 10%. Met?
**Result** 1

**Query** Record O=C(NCc1cc[nH]n1)N(CCCO)C1CCc2ccccc21 (configuration not stated) ; criterion: Percent Effect no lower than 10%. Met?
**Result** 0

**Query** Record Cc1ccc(NC(=O)N2C[C@H]3CC[C@@H]2CN(Cc2cscn2)C3)cc1 ; criterion: Percent Effect no lower than 10%. Met?
**Result** 0

**Query** Record CCc1cnc(N)nc1NCCN1CCCCC1 ; criterion: Percent Effect no lower than 10%. Met?
**Result** 0

**Query** Record CS(=O)(=O)NCC(=O)N1CCCC1c1noc(C2CC2)n1 (configuration not stated) ; criterion: Percent Effect no lower than 10%. Met?
**Result** 0

**Query** Record Cc1nccn1CCC1CCCCN1Cc1ccc(N(C)C)nc1 (configuration not stated) ; criterion: Percent Effect no lower than 10%. Met?
**Result** 1

**Query** Record Cc1nc(C2CCCN2CCCS(=O)(=O)N(C)C)no1 (configuration not stated) ; criterion: Percent Effect no lower than 10%. Met?
**Result** 1

**Query** Record COc1cccc2c1OCC(C(=O)N1CCN(S(C)(=O)=O)CC1)C2 (configuration not stated) ; criterion: Percent Effect no lower than 10%. Met?
**Result** 0

**Query** Record CSCC[C@H](NC(=O)Cn1ccc2c(Cl)cccc21)C(=O)O ; criterion: Percent Effect no lower than 10%. Met?
**Result** 1

**Query** Record CC(=O)N1CC[C@@H]2CN(C(=O)c3ccco3)CCO[C@@H]2C1 ; criterion: Percent Effect no lower than 10%. Met?
**Result** 1

**Query** Record CC(C)(C)c1n[nH]c(C2CN(C(=O)CCC3CC3)CCO2)n1 (configuration not stated) ; criterion: Percent Effect no lower than 10%. Met?
**Result** 0

**Query** Record COc1ccc(C2=C(C)C(N3CCc4ccccc4C3)=NS2(=O)=O)cc1 ; criterion: Percent Effect no lower than 10%. Met?
**Result** 1

**Query** Record Cn1nc(C#N)c2c1CN(C(=O)c1cccnc1)CCC2 ; criterion: Percent Effect no lower than 10%. Met?
**Result** 0

**Query** Record Cc1nc(CN2CCN(Cc3ccoc3)Cc3cccnc32)cs1 ; criterion: Percent Effect no lower than 10%. Met?
**Result** 1

**Query** Record CCOc1cc(CNC(=O)N2CCC(Cc3cnn(C)c3)C2)ccn1 (configuration not stated) ; criterion: Percent Effect no lower than 10%. Met?
**Result** 0
